Assay: Pharmacokinetics, single oral gavage, 2 formulations, Wistar and Sprague-Dawley rats
Type: in vivo
Conditions: female, Wistar, rat, plasma, po, 15 mg/kg, Formulation 2, Wistar (Female)
Description: Pharmacokinetics and gender differences were evaluated with 2 different formulations of CFMQ (HGT3711) in 2 different types of rat models. These attributes were investigated in a single oral gavage study. Male and female Wistar rats (n=3 per dose group) received CFMQ (HGT3711) at 15, […], and or 150 mg/kg. […] The two vehicle formulations evaluated were formulation 1: 10% N-methyl pyrrolidone (NMP): 10% Ethanol: 30% polyethylene glycol (PEG400): 50% […] […]
Quantity name: Tmax (h)
Could you give me the number in h? Just the number is fine.

Fill in the blank: the reported Tmax of `Cc1cc(Cl)c(COc2cccc3c(-n4cc(F)cn4)cc(C)nc23)c(Cn2cccc(C#N)c2=O)n1` is ____.
3.33

---

assay: Pharmacokinetics, single oral gavage, 2 formulations, Wistar and Sprague-Dawley rats; format: in vivo; conditions: female, Wistar, rat, plasma, po, 75 mg/kg, Formulation 2, Wistar (Female)
Quantity name: half-life
Express the reported value numerically, then name its unit.

Fill in the blank: the reported half-life of Cc1cc(Cl)c(COc2cccc3c(-n4cc(F)cn4)cc(C)nc23)c(Cn2cccc(C#N)c2=O)n1 [CFMQ] is ____.
3.12 h

---

test: Pharmacokinetics, single oral gavage, 2 formulations, Wistar and Sprague-Dawley rats; assay type: in vivo; settings: male, Wistar, rat, plasma, po, 75 mg/kg, Formulation 1, Wistar (Male)
Quantity name: Cmax (ng/mL)
Could you give me the number in ng/mL? Just the number is fine.

Fill in the blank: the reported Cmax of `Cc1cc(Cl)c(COc2cccc3c(-n4cc(F)cn4)cc(C)nc23)c(Cn2cccc(C#N)c2=O)n1` is ____.
155

---

experiment: Pharmacokinetics, single oral gavage, CD-1 mice; assay type: in vivo, female CD-1 mice; conditions: female, CD-1, mouse, plasma, 450 mg/kg, 240 min, read-out: Average Concentration of HGT3711
Quantity name: concentration at 240 min (ng/mL)
Could you give me the number in ng/mL? Just the number is fine.

Fill in the blank: the reported concentration at 240 min of `Cc1cc(Cl)c(COc2cccc3c(-n4cc(F)cn4)cc(C)nc23)c(Cn2cccc(C#N)c2=O)n1` is ____.
3370

---

assay: Pharmacokinetics, single oral gavage, 2 formulations, Wistar and Sprague-Dawley rats; type: in vivo; details: male, Wistar, rat, plasma, po, 150 mg/kg, Formulation 2, Wistar (Male)
Quantity name: half-life

Fill in the blank: the reported half-life of `Cc1cc(Cl)c(COc2cccc3c(-n4cc(F)cn4)cc(C)nc23)c(Cn2cccc(C#N)c2=O)n1` is ____.
146 min

---

experiment: Pharmacokinetics, single oral gavage, 2 formulations, Wistar and Sprague-Dawley rats; type: in vivo; conditions: male, Wistar, rat, plasma, po, 75 mg/kg, Formulation 1, Wistar (Male)
Quantity name: AUC(0-t) (ng·h/mL)
Could you give me the number in ng·h/mL? Just the number is fine.

Fill in the blank: the reported AUC(0-t) of `Cc1cc(Cl)c(COc2cccc3c(-n4cc(F)cn4)cc(C)nc23)c(Cn2cccc(C#N)c2=O)n1` is ____.
243

---

experiment: Pharmacokinetics, single oral gavage, 2 formulations, Wistar and Sprague-Dawley rats; format: in vivo; settings: male, Sprague-Dawley, rat, plasma, po, 75 mg/kg, Formulation 1, S-D (Male)
Quantity name: AUC(0-t) (µg·h/mL)
Could you give me the number in µg·h/mL? Just the number is fine.

Fill in the blank: the reported AUC(0-t) of `Cc1cc(Cl)c(COc2cccc3c(-n4cc(F)cn4)cc(C)nc23)c(Cn2cccc(C#N)c2=O)n1` is ____.
0.41

---

test: Pharmacokinetics, single oral gavage, CD-1 mice; assay type: in vivo, female CD-1 mice; details: female, CD-1, mouse, plasma, 250 mg/kg, 10 min, read-out: Average Concentration of HGT3711
Quantity name: concentration at 10 min (ng/mL)
Could you give me the number in ng/mL? Just the number is fine.

Fill in the blank: the reported concentration at 10 min of Cc1cc(Cl)c(COc2cccc3c(-n4cc(F)cn4)cc(C)nc23)c(Cn2cccc(C#N)c2=O)n1 [CFMQ] is ____.
6250

---

test: Pharmacokinetics, single oral gavage, 2 formulations, Wistar and Sprague-Dawley rats; assay type: in vivo; conditions: male, Wistar, rat, plasma, po, 15 mg/kg, Formulation 2, Wistar (Male)
Quantity name: half-life (h)
Could you give me the number in h? Just the number is fine.

Fill in the blank: the reported half-life of Cc1cc(Cl)c(COc2cccc3c(-n4cc(F)cn4)cc(C)nc23)c(Cn2cccc(C#N)c2=O)n1 [CFMQ] is ____.
1.74

---

experiment: Pharmacokinetics, single oral gavage, 2 formulations, Wistar and Sprague-Dawley rats; format: in vivo; conditions: male, Wistar, rat, plasma, po, 150 mg/kg, Formulation 1, Wistar (Male)
Quantity name: Tmax (min)
Could you give me the number in min? Just the number is fine.

Fill in the blank: the reported Tmax of `Cc1cc(Cl)c(COc2cccc3c(-n4cc(F)cn4)cc(C)nc23)c(Cn2cccc(C#N)c2=O)n1` is ____.
15

---

test: Pharmacokinetics, single oral gavage, 2 formulations, Wistar and Sprague-Dawley rats; type: in vivo; conditions: female, Wistar, rat, plasma, po, 75 mg/kg, Formulation 1, Wistar (Female)
Quantity name: Tmax (min)
Could you give me the number in min? Just the number is fine.

Fill in the blank: the reported Tmax of Cc1cc(Cl)c(COc2cccc3c(-n4cc(F)cn4)cc(C)nc23)c(Cn2cccc(C#N)c2=O)n1 [CFMQ] is ____.
34.8

---

assay: Pharmacokinetics, single oral gavage, 2 formulations, Wistar and Sprague-Dawley rats; type: in vivo; details: female, Sprague-Dawley, rat, plasma, po, 75 mg/kg, Formulation 1, S-D (Female)
Quantity name: Cmax (ng/mL)
Could you give me the number in ng/mL? Just the number is fine.

Fill in the blank: the reported Cmax of Cc1cc(Cl)c(COc2cccc3c(-n4cc(F)cn4)cc(C)nc23)c(Cn2cccc(C#N)c2=O)n1 [CFMQ] is ____.
2280

---

test: Pharmacokinetics, single oral gavage, 2 formulations, Wistar and Sprague-Dawley rats; assay type: in vivo; details: female, Wistar, rat, plasma, po, 15 mg/kg, Formulation 1, Wistar (Female)
Quantity name: AUC(0-t) (ng·h/mL)
Could you give me the number in ng·h/mL? Just the number is fine.

Fill in the blank: the reported AUC(0-t) of Cc1cc(Cl)c(COc2cccc3c(-n4cc(F)cn4)cc(C)nc23)c(Cn2cccc(C#N)c2=O)n1 [CFMQ] is ____.
4660

---

assay: Pharmacokinetics, single oral gavage, 2 formulations, Wistar and Sprague-Dawley rats; assay type: in vivo; details: female, Sprague-Dawley, rat, plasma, po, 75 mg/kg, Formulation 1, S-D (Female)
Quantity name: Tmax (min)
Could you give me the number in min? Just the number is fine.

Fill in the blank: the reported Tmax of `Cc1cc(Cl)c(COc2cccc3c(-n4cc(F)cn4)cc(C)nc23)c(Cn2cccc(C#N)c2=O)n1` is ____.
30

---

experiment: Plasma kinetics, intravenous, Sprague-Dawley rats; format: in vivo, female Sprague-Dawley rats; details: female, Sprague-Dawley, rat, plasma; IV 1 mg/kg, 0.083 hr; read-out: Average Concentration of HGT3711
Quantity name: concentration at 0.083 hr (ng/mL)
Could you give me the number in ng/mL? Just the number is fine.

Fill in the blank: the reported concentration at 0.083 hr of `Cc1cc(Cl)c(COc2cccc3c(-n4cc(F)cn4)cc(C)nc23)c(Cn2cccc(C#N)c2=O)n1` is ____.
597

---

biological target: μ (h) (MOP) (agonist site) (Homo sapiens); assay: Off-target receptor binding: μ (MOP)
Sequence (P35372 whole entry): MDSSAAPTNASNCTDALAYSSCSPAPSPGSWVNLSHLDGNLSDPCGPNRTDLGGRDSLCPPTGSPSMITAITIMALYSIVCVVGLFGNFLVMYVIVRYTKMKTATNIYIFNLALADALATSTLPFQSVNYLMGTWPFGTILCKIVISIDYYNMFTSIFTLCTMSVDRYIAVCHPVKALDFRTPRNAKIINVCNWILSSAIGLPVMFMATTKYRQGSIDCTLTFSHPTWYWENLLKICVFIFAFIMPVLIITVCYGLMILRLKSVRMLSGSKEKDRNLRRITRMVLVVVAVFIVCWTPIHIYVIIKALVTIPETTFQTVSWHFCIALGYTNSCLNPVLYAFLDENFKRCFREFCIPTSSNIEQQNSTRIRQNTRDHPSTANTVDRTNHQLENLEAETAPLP
Quantity name: pIC50
Scale for pIC50: -log10 of concentration given in mol/L; no unit attached.

Fill in the blank: the reported pIC50 of Cc1cc(Cl)c(COc2cccc3c(-n4cc(F)cn4)cc(C)nc23)c(Cn2cccc(C#N)c2=O)n1 [CFMQ] is ____.
5.17

---

assay: Pharmacokinetics, single oral gavage, 2 formulations, Wistar and Sprague-Dawley rats; assay type: in vivo; settings: male, Sprague-Dawley, rat, plasma, po, 75 mg/kg, Formulation 1, S-D (Male)
Quantity name: Cmax (ng/mL)
Could you give me the number in ng/mL? Just the number is fine.

Fill in the blank: the reported Cmax of `Cc1cc(Cl)c(COc2cccc3c(-n4cc(F)cn4)cc(C)nc23)c(Cn2cccc(C#N)c2=O)n1` is ____.
187

---

Assay: Plasma kinetics, intravenous, beagle dogs
Type: in vivo, female beagle dogs
Conditions: female, beagle, dog, plasma; IV 1 mg/kg, 4.0 hr; read-out: Average Concentration of HGT3711
Method: CFMQ (HGT3711) was administered to fasted female beagle dogs by a single intravenous injection at 1.0 mg/kg, formulated in 100% PEG200 (Table 10). Blood samples were taken via jugular vein puncture prior to administration and at 0.083 (5 min), 0.25 (15 min), 0.50 (30 min), 1, 4, 8 and 24 hours post dose. Plasma concentrations of CFMQ (HGT3711) were determined by LC-MS/MS and concentrations below the limit of quantitation (1.0 ng/mL) were assigned a value of zero for pharmacokinetic analysis. […]
Quantity name: concentration at 4 hr (ng/mL)
Could you give me the number in ng/mL? Just the number is fine.

Fill in the blank: the reported concentration at 4 hr of `Cc1cc(Cl)c(COc2cccc3c(-n4cc(F)cn4)cc(C)nc23)c(Cn2cccc(C#N)c2=O)n1` is ____.
377
